# System: E. coli D22
# assay-text: Broth microdilution MIC in CAMHB
# Type: cell-based
# protocol-conditions: Escherichia coli; E. coli D22 (hyper-permeable); MHB; read-out: Minimum Inhibitory Concentration, E. coli D22
measured-parameter: MIC

// known answers, use as guide
{"columns": ["compound", "result"],
 "data": [
  ["CCN1CCN(C(=O)NC(C(=O)N[C@H]2Cc3cccc(C(=O)O)c3OB2O)c2ccc(C(=O)O)cc2F)C(=O)C1=O (stereo partly shown) [Example 145]", "2 to 4 µg/mL"],
  ["NCCN1CCN(C(=O)N[C@H](C(=O)N[C@H]2Cc3cccc(C(=O)O)c3OB2O)c2cc(Cl)c(O)c(Cl)c2)C(=O)C1=O (single isomer, unassigned) [Example 165]", "32 to 64 µg/mL"],
  ["NCCN1CCN(C(=O)N[C@@H](C(=O)N[C@H]2Cc3cccc(C(=O)O)c3OB2O)c2c(F)cc(O)cc2F)C(=O)C1=O (single isomer, unassigned) [Example 111]", "2 to 4 µg/mL"]
]}

Please look at the following compound next.
[ask] Which MIC value is on record for CCN1CCN(C(=O)NC(C(=O)N[C@H]2Cc3ccc(SCCNCCN)c(C(=O)O)c3OB2O)c2csc(N)n2)C(=O)C1=O (stereo partly shown) [Example 66] ?
[reply] 32 to 64 µg/mL

====

# Test system: E. coli AG100
# assay-text: Broth microdilution MIC in CAMHB
# Type: cell-based
# protocol-conditions: Escherichia coli; E. coli AG100 (wild-type parent); MHB; read-out: Minimum Inhibitory Concentration, E. coli AG100
measured-parameter: MIC

{"columns": ["compound", "target-system", "MIC"],
 "data": [
  ["CCN1CCN(C(=O)NC(C(=O)N[C@H]2Cc3cccc(C(=O)O)c3OB2O)c2ccc(O)cc2O)C(=O)C1=O (some centres unmarked) [Example 69]", "E. coli AG100", "32 to 64 µg/mL"],
  ["CCN1CCN(C(=O)NC(C(=O)N[C@H]2Cc3cccc(C(=O)O)c3OB2O)c2cc(F)c(C(=O)O)cc2F)C(=O)C1=O (some centres unmarked) [Example 137]", "E. coli AG100", "32 to 64 µg/mL"],
  ["NCCN1CCN(C(=O)N[C@@H](C(=O)N[C@H]2Cc3cccc(C(=O)O)c3OB2O)c2c(F)cc(O)cc2F)C(=O)C1=O (single isomer, unassigned) [Example 111]", "E. coli AG100", "8 to 16 µg/mL"],
  ["NCCN1CCN(C(=O)N[C@H](C(=O)N[C@H]2Cc3ccc(F)c(C(=O)O)c3OB2O)c2c(F)cc(O)cc2F)C(=O)C1=O (single isomer, unassigned) [Example 128]", "E. coli AG100", "32 to 64 µg/mL"],
  ["CCN1CCN(C(=O)NC(C(=O)N[C@H]2Cc3cccc(C(=O)O)c3OB2O)c2cc(Cl)c(C(=O)O)cc2F)C(=O)C1=O (some centres unmarked) [Example 138]", "E. coli AG100", "32 to 64 µg/mL"]
]}

[ask] Which MIC value is on record for CS(=O)(=O)N1CCN(C(=O)N[C@@H](C(=O)N[C@H]2Cc3ccc(F)c(C(=O)O)c3OB2O)c2cc(F)c(O)c(O)c2Cl)C1=O (single isomer, unassigned) [Example 189] ?
[reply] 8 to 16 µg/mL

[ask] How about NCCN1CCN(C(=O)N[C@H](C(=O)N[C@H]2Cc3cccc(C(=O)O)c3OB2O)c2ccc(O)c(F)c2F)C(=O)C1=O (single isomer, unassigned) [Example 169] ?
[reply] 32 to 64 µg/mL

[ask] How about CCN1CCN(C(=O)N[C@@H](C(=O)N[C@H]2Cc3cccc(C(=O)O)c3OB2O)c2ccc(C(=O)O)cc2)C(=O)C1=O (single isomer, unassigned) [Example 124] ?
[reply] 8 to 16 µg/mL

[ask] How about CCN1CCN(C(=O)NC(C(=O)N[C@H]2Cc3cccc(C(=O)O)c3OB2O)c2c(F)cc(NS(N)(=O)=O)cc2F)C(=O)C1=O (some centres unmarked) [Example 176] ?
[reply] 32 to 64 µg/mL

[ask] How about NS(=O)(=O)NC(C(=O)N[C@H]1Cc2cccc(C(=O)O)c2OB1O)c1ccc(C(=O)O)c(F)c1 (some centres unmarked) [Example 44] ?
[reply] > 128 µg/mL

[ask] How about NS(=O)(=O)Nc1ccc(F)c([C@H](NC(=O)N2CCN(CC(F)(F)F)C(=O)C2=O)C(=O)N[C@H]2Cc3cccc(C(=O)O)c3OB2O)c1 (single isomer, unassigned) [Example 218] ?
[reply] > 128 µg/mL

====

# System: N. gonorrhoeae WHO L
# assay-text: Liquid broth MIC in Fastidious broth
# Format: cell-based
# protocol-conditions: Neisseria gonorrhoeae; N. gonorrhoeae strain WHO L; Fastidious broth; read-out: Minimum Inhibitory Concentration, N. gonorrhoeae WHO L
measured-parameter: MIC

// known answers, use as guide
{"columns": ["molecule", "measured-parameter", "result"],
 "data": [
  ["NCCN1CCN(C(=O)N[C@@H](C(=O)N[C@H]2Cc3cccc(C(=O)O)c3OB2O)c2ccc(O)c(Cl)c2F)C(=O)C1=O (single isomer, unassigned)", "MIC", "> 64 µg/mL"],
  ["CS(=O)(=O)N1CCN(C(=O)N[C@H](C(=O)N[C@H]2Cc3cccc(C(=O)O)c3OB2O)c2c(F)cc(O)cc2F)C1=O (single isomer, unassigned)", "MIC", "> 64 µg/mL"],
  ["NCCCN1CCN(C(=O)N[C@H](C(=O)N[C@H]2Cc3ccc(F)c(C(=O)O)c3OB2O)c2ccc(O)c(O)c2Cl)C(=O)C1=O (single isomer, unassigned)", "MIC", "> 64 µg/mL"],
  ["CCN1CCN(C(=O)NC(C(=O)N[C@H]2Cc3ccc(O[C@@H]4CN[C@H](C(=O)N(C)C)C4)c(C(=O)O)c3OB2O)c2ccccc2)C(=O)C1=O (stereo partly shown)", "MIC", "> 64 µg/mL"],
  ["NC1(CN2CCN(C(=O)N[C@@H](C(=O)N[C@H]3Cc4cccc(C(=O)O)c4OB3O)c3c(F)cc(O)cc3F)C(=O)C2=O)CC1 (single isomer, unassigned)", "MIC", "> 64 µg/mL"]
]}

[ask] Which MIC value is on record for NCCCN1CCN(C(=O)N[C@@H](C(=O)N[C@H]2Cc3ccc(F)c(C(=O)O)c3OB2O)c2c(F)cc(O)c(O)c2F)C(=O)C1=O (single isomer, unassigned) ?
[reply] > 64 µg/mL

[ask] How about NCCN1CCN(C(=O)N[C@@H](C(=O)N[C@H]2Cc3ccc(F)c(C(=O)O)c3OB2O)c2c(F)cc(O)cc2F)C(=O)C1=O (single isomer, unassigned) ?
[reply] > 64 µg/mL

[ask] How about CCN1CCN(C(=O)NC(C(=O)N[C@H]2Cc3cccc(C(=O)O)c3OB2O)c2cc(NS(N)(=O)=O)ccc2F)C(=O)C1=O (stereo partly shown) ?
[reply] > 64 µg/mL

[ask] How about CCN1CCN(C(=O)NC(C(=O)N[C@H]2Cc3cccc(C(=O)O)c3OB2O)c2cccc(NS(C)(=O)=O)c2)C(=O)C1=O (stereo partly shown) ?
[reply] > 64 µg/mL

[ask] How about CCN1CCN(C(=O)NC(C(=O)N[C@H]2Cc3cccc(C(=O)O)c3OB2O)c2ccc(C(=O)O)c(O)c2)C(=O)C1=O (stereo partly shown) ?
[reply] 16 to 32 µg/mL

[ask] How about CCN1CCN(C(=O)NC(C(=O)N[C@H]2Cc3cccc(C(=O)O)c3OB2O)c2cc(F)c(O)c(Cl)c2)C(=O)C1=O (stereo partly shown) ?
[reply] 16 to 32 µg/mL

[ask] How about CCN1CCN(C(=O)NC(C(=O)N[C@H]2Cc3cccc(C(=O)O)c3OB2O)c2c(F)c(F)c(O)c(F)c2F)C(=O)C1=O (stereo partly shown) ?
[reply] 4 to 8 µg/mL

[ask] How about NCCN1CCN(C(=O)N[C@H](C(=O)N[C@H]2Cc3cccc(C(=O)O)c3OB2O)c2ccc(O)cc2F)C(=O)C1=O (single isomer, unassigned) ?
[reply] > 64 µg/mL

[ask] How about NS(=O)(=O)c1cccc(C(NC(=O)N2CCN(CCF)C(=O)C2=O)C(=O)N[C@H]2Cc3cccc(C(=O)O)c3OB2O)c1 (stereo partly shown) ?
[reply] > 64 µg/mL

[ask] How about CCN1CCN(C(=O)NC(C(=O)N[C@H]2Cc3cccc(C(=O)O)c3OB2O)c2cccc(C(=O)O)c2)C(=O)C1=O (stereo partly shown) ?
[reply] > 64 µg/mL

[ask] How about CCN1CCN(C(=O)NC(C(=O)N[C@H]2Cc3cccc(C(=O)O)c3OB2O)c2cc(O)ccc2O)C(=O)C1=O (stereo partly shown) ?
[reply] > 64 µg/mL

[ask] How about CCN1CCN(C(=O)NC(C(=O)N[C@H]2Cc3cccc(C(=O)O)c3OB2O)c2ccc(C(=O)O)c(OC)c2)C(=O)C1=O (stereo partly shown) ?
[reply] 16 to 32 µg/mL

[ask] How about NCCN1CCN(C(=O)NC(C(=O)N[C@H]2Cc3cccc(C(=O)O)c3OB2O)c2c(F)cc(O)cc2Cl)C(=O)C1=O (stereo partly shown) ?
[reply] > 64 µg/mL

[ask] How about CS(=O)(=O)N1CCN(C(=O)NC(C(=O)N[C@H]2Cc3ccc(F)c(C(=O)O)c3OB2O)c2ccc(O)c(O)c2Cl)C1=O (stereo partly shown) ?
[reply] > 64 µg/mL
